Reference source for all entries: patent US20220177510A1

Molecular target: ALPK1 (Homo sapiens, UniProt Q96QP1)
Construct: endogenous in cells; host or cells: HEK293 (A1); HEK293 stably expressing an NF-kB-alkaline phosphatase reporter (A2)
Sequence (Q96QP1 whole entry): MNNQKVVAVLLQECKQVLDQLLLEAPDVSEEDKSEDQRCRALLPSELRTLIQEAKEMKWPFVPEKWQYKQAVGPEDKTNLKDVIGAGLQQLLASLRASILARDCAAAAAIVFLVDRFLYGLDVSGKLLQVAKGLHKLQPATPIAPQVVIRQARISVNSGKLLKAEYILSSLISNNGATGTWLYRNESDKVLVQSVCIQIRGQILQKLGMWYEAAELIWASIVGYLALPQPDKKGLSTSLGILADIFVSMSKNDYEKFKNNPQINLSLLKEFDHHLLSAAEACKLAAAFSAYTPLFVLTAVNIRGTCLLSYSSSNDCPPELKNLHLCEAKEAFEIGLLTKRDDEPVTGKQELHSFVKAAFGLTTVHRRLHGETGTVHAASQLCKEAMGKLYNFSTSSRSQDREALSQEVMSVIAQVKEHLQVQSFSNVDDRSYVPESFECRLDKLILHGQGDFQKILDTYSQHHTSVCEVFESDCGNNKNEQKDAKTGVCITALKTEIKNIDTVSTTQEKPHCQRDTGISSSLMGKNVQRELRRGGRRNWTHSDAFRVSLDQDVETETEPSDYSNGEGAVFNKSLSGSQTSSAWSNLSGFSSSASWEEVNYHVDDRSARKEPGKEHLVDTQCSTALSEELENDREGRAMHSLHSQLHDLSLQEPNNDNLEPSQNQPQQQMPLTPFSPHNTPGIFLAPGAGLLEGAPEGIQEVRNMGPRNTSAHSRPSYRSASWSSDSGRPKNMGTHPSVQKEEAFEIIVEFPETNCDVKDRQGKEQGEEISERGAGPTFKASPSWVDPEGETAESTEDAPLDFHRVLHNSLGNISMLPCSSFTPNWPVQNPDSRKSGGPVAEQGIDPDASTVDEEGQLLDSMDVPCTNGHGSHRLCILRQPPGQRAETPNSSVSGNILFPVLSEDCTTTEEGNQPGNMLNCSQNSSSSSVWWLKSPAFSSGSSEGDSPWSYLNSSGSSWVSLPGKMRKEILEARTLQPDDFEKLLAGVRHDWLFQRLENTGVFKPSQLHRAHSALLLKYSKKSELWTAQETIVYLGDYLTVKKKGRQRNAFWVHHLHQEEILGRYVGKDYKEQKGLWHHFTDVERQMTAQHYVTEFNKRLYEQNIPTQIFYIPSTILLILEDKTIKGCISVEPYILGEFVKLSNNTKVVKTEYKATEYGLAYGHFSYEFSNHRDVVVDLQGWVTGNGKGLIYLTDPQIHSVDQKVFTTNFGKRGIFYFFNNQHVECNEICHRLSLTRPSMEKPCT
Assay: NF-kB promoter driven alkaline phosphatase reporter in HEK293 cells (pNPP assay)
Format: cell-based
Settings: HEK293-NFkB-AP reporter cells treated 7 hours, FIG. 7B, Table 2C
reported_property: EC50 (nM)
Answer format: numeric, nM implied, no suffix.

Some compounds with known EC50 results, for comparison:
compound="CC(=O)OC[C@H](F)[C@H]1O[C@@H](OP(=O)(O)OP(O)(=S)OC[C@H]2O[C@@H](c3csc(C(N)=O)c3N)[C@H](O)[C@@H]2O)[C@@H](OC(C)=O)[C@@H](OC(C)=O)[C@@H]1OC(C)=O (stereo partly drawn)" measured=42.3
compound="CC(=O)OC[C@H](F)[C@H]1O[C@@H](OP(=O)(O)OP(O)(=S)OC[C@H]2O[C@@H](c3coc4c(N)ncnc34)[C@H](O)[C@@H]2O)[C@@H](OC(C)=O)[C@@H](OC(C)=O)[C@@H]1OC(C)=O (stereo partly drawn)" measured=3.9

I looked up CC(=O)OC[C@H](F)C1O[C@@H](OP(=O)(O)OP(O)(=S)OC[C@H]2O[C@@H](n3cnc4c(N)ncnc43)C(O)C2O)C(OC(C)=O)C(OC(C)=O)[C@@H]1OC(C)=O (stereo partly drawn) and its EC50 for ALPK1 (Homo sapiens, UniProt Q96QP1) was 67
